The reported numbers originate from paper PMC8856110.

Assay: Base-catalysed (alkaline) hydrolysis with LiOH in THF:H2O
Conditions: LiOH in tetrahydrofuran/water (6:4)
Assign half-life at 2.5 g/L to each entry below.
Entry rule: numbers only, all in min.

Prompt line: Find the measured half-life at 2.5 g/L of CCOC(=O)c1ccc(Br)cc1 [Compound 12, ethyl 4-bromobenzoate] and report it.
Response line: 12

Prompt line: Find the measured half-life at 2.5 g/L of CCCCOC(=O)c1ccccc1 [Compound 4, n-butyl benzoate] and report it.
Response line: 21

Prompt line: Find the measured half-life at 2.5 g/L of COC(=O)c1ccccc1 [Compound 1, methyl benzoate] and report it.
Response line: 14

Prompt line: Find the measured half-life at 2.5 g/L of CCOC(=O)c1cccc(Br)c1 [Compound 11, ethyl 3-bromobenzoate] and report it.
Response line: 25

Prompt line: Find the measured half-life at 2.5 g/L of O=C(Oc1ccccc1)c1ccccc1 [Compound 5, phenyl benzoate] and report it.
Response line: 11

Prompt line: Find the measured half-life at 2.5 g/L of O=C(OCc1ccccc1)c1ccccc1 [Compound 6, benzyl benzoate] and report it.
Response line: 16

Prompt line: Find the measured half-life at 2.5 g/L of CCOC(=O)c1ccccc1Br [Compound 10, ethyl 2-bromobenzoate] and report it.
Response line: 15

Prompt line: Find the measured half-life at 2.5 g/L of CCCOC(=O)c1ccccc1 [Compound 3, n-propyl benzoate] and report it.
Response line: 19
